targetOrTestSystem: ATM (Homo sapiens (Human), UniProt Q13315)
Sequence (Q13315 whole entry): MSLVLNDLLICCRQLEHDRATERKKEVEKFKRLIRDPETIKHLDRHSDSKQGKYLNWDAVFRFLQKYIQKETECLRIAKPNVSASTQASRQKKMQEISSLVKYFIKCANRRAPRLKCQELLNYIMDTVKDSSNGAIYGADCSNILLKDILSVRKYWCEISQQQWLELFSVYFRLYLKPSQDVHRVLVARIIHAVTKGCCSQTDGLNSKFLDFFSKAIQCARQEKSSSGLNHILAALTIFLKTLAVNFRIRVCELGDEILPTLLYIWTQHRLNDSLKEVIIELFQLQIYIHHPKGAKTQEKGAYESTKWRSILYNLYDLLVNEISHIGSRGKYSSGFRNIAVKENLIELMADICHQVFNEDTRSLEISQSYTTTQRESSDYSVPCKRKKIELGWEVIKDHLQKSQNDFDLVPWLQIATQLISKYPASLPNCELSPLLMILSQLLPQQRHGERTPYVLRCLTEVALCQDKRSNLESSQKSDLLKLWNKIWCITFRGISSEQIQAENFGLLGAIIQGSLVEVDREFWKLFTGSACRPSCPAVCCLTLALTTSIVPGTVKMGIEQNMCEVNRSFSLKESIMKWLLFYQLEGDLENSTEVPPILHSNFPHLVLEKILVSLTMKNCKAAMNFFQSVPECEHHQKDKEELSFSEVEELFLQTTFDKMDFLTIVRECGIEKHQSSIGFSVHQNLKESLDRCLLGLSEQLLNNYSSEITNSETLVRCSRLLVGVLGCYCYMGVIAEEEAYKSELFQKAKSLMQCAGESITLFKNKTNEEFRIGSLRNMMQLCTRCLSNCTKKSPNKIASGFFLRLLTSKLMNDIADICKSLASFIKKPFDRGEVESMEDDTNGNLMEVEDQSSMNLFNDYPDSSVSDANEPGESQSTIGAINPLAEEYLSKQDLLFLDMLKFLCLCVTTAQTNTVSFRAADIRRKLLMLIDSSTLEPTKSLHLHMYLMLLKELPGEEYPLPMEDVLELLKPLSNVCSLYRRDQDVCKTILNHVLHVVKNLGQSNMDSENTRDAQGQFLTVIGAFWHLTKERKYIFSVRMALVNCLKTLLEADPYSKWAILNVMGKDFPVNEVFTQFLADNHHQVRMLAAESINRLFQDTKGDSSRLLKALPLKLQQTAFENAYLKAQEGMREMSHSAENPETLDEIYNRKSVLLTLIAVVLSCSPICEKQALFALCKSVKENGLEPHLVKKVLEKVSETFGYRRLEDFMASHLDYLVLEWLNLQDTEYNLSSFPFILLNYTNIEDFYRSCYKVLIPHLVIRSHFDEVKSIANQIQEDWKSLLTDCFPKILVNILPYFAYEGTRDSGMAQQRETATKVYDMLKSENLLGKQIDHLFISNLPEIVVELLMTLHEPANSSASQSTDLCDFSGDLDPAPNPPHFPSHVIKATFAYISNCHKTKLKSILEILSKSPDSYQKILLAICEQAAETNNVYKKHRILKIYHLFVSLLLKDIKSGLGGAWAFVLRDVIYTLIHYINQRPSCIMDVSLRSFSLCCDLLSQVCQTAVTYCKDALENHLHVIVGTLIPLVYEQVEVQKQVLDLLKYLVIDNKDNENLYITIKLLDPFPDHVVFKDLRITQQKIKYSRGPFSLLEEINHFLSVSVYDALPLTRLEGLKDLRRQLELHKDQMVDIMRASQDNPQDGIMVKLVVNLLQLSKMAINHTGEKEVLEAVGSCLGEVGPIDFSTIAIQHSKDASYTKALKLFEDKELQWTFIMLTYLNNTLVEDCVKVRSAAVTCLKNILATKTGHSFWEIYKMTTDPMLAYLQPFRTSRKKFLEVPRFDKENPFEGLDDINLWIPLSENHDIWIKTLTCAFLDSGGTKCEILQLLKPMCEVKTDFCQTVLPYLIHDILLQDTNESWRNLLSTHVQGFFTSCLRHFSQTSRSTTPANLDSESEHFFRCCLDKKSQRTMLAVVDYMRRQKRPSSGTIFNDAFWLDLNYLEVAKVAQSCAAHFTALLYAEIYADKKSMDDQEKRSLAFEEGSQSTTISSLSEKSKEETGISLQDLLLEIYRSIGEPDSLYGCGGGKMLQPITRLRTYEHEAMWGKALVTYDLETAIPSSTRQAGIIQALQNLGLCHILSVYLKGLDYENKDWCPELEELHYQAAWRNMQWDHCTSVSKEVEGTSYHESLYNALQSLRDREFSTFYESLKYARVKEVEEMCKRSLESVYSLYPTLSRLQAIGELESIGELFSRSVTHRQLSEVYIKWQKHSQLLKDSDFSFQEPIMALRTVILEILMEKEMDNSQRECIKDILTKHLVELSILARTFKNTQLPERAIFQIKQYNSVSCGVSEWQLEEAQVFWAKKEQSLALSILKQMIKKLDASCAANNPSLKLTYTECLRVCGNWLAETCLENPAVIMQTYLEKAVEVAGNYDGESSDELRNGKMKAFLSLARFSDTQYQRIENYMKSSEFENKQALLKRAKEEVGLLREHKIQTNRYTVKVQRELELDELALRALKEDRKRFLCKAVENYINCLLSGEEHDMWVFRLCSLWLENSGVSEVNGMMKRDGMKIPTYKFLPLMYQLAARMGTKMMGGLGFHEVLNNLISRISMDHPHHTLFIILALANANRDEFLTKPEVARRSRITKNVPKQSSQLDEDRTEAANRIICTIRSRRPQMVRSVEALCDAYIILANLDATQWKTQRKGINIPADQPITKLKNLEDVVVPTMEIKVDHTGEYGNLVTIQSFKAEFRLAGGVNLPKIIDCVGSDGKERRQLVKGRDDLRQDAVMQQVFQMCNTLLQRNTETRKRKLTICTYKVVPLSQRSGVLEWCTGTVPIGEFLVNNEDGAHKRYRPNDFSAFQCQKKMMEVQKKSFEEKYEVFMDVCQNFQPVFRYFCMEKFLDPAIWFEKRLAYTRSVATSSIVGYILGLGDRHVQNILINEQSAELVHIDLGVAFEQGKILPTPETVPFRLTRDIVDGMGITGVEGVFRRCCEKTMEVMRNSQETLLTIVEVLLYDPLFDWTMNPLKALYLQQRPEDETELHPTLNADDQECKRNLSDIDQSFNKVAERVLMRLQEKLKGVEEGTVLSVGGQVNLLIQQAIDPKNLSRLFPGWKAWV
assayMethodText: ATM in Cell Western Assay (pKAP1 in etoposide-treated MCF-7 cells)
Format: cell-based
appliedConditions: pKAP1 in etoposide-treated MCF-7 cells
pIC50: −log10 of the molar value.

[
  {
    "smilesRecord": "CC(C)NCCOc1ncc(-c2cc3c4c(cnc3cc2F)N(C)C(=O)C42CN([C@H]3CC[C@H](O)CC3)C2)cc1NS(C)(=O)=O",
    "targetOrTestSystem": "ATM (Homo sapiens (Human), UniProt Q13315)",
    "pIC50": "< 7.00"
  },
  {
    "smilesRecord": "CC(C)NCCOc1ncc(-c2cc3c(cc2F)ncc2c3[C@]3(C[C@@H](c4cccc(=O)[nH]4)C3)C(=O)N2C)cc1NS(C)(=O)=O",
    "targetOrTestSystem": "ATM (Homo sapiens (Human), UniProt Q13315)",
    "pIC50": "< 7.00"
  },
  {
    "smilesRecord": "CC(C)NCCOc1ncc(-c2cc3c4c(cnc3cc2F)N(C)C(=O)C42CN(c3ccccc3Cl)C2)cc1NS(C)(=O)=O",
    "targetOrTestSystem": "ATM (Homo sapiens (Human), UniProt Q13315)",
    "pIC50": "7.00 to 9.00"
  },
  {
    "smilesRecord": "Cc1cc(S(=O)(=O)Nc2cc(-c3cc4c5c(cnc4cc3F)N(C)C(=O)C53CN(c4ccccc4)C3)cnc2OCCNC(C)C)sn1",
    "targetOrTestSystem": "ATM (Homo sapiens (Human), UniProt Q13315)",
    "pIC50": "7.00 to 9.00"
  }
]

---

targetOrTestSystem: ATM (Homo sapiens (Human), UniProt Q13315)
assayMethodText: ATM in Cell Western Assay (pKAP1 in etoposide-treated MCF-7 cells)
Assay type: cell-based
appliedConditions: pKAP1 in etoposide-treated MCF-7 cells
Where a name gives a salt, the structure may show the parent alone.
Parameter IC50: see the listing below.

[
  {
    "compound": "CC(C)NCCOc1ncc(-c2cc3c(cc2F)ncc2c3[C@]3(C[C@@H](COC(C)C)C3)C(=O)N2C)cc1NS(=O)(=O)C(C)C",
    "IC50": "1 to 100 nM"
  },
  {
    "compound": "COC(=O)c1cc(-c2ccc3ncc4c(c3c2)C2(CCC2)C(=O)N4C)cc(NS(C)(=O)=O)c1OCCCN(C)C",
    "IC50": "> 100 nM"
  },
  {
    "compound": "COc1ccc([C@H]2C[C@@]3(C2)C(=O)N(C)c2cnc4cc(F)c(-c5cnc(OCCNC(C)C)c(NS(C)(=O)=O)c5)cc4c23)cn1",
    "IC50": "> 100 nM"
  },
  {
    "compound": "CC(C)NCCOc1ncc(-c2ccc3ncc4c(c3c2F)C2(CCC2)C(=O)N4C)cc1NS(C)(=O)=O [Example 556, hydrochloride]",
    "IC50": "1 to 100 nM"
  },
  {
    "compound": "CC(C)NCCOc1ncc(-c2cc3c(cc2F)ncc2c3[C@]3(C[C@@H](OC(C)C)C3)C(=O)N2C)cc1NS(C)(=O)=O",
    "IC50": "1 to 100 nM"
  },
  {
    "compound": "CC(C)NCCOc1ncc(-c2cc3c4c(cnc3cc2F)N(C)C(=O)C42CCC2)cc1NS(=O)(=O)C1CC1 [Example 365, hydrochloride]",
    "IC50": "1 to 100 nM"
  }
]

---

targetOrTestSystem: ATM (Homo sapiens (Human), UniProt Q13315)
assayMethodText: ATM in Cell Western Assay (pKAP1 in etoposide-treated MCF-7 cells)
Format: cell-based
appliedConditions: pKAP1 in etoposide-treated MCF-7 cells
Structures can show the parent of a compound that is named as a salt.
Parameter IC50: see the listing below.
experimentalEndpoint: IC50

[
  {
    "molecule": "CC(C)NCCOc1ncc(-c2cc3c4c(cnc3cc2F)N(C)C(=O)C42CN([C@H]3CC[C@@H](O)CC3)C2)cc1NS(C)(=O)=O [Example 504]",
    "experimentalResult": "> 100 nM"
  },
  {
    "molecule": "CC(C)NCCOc1ncc(-c2cc3c4c(cnc3cc2F)N(C)C(=O)C42CN(C(=O)N(C)C)C2)cc1NS(C)(=O)=O [Example 518]",
    "experimentalResult": "> 100 nM"
  },
  {
    "molecule": "COc1ccccc1N1CC2(C1)C(=O)N(C)c1cnc3cc(F)c(-c4cnc(OCCNC(C)C)c(NS(C)(=O)=O)c4)cc3c12 [Example 535]",
    "experimentalResult": "1 to 100 nM"
  },
  {
    "molecule": "CN1C(=O)C2(CCC2)c2c1cnc1ccc(-c3cnc(N4CC5CC(C4)N5C(=O)OC(C)(C)C)c(NS(C)(=O)=O)c3)cc21 [Example 359]",
    "experimentalResult": "> 100 nM"
  },
  {
    "molecule": "CC(C)NCCOc1ncc(-c2cc3c(cc2F)ncc2c3[C@]3(C[C@H](N(C)C)C3)C(=O)N2C)cc1NS(C)(=O)=O [Example 465]",
    "experimentalResult": "1 to 100 nM"
  },
  {
    "molecule": "CC(C)NCCOc1ncc(-c2cc3c(cc2F)ncc2c3[C@]3(C[C@H](CN(C)C)C3)C(=O)N2C)cc1NS(C)(=O)=O [Example 452]",
    "experimentalResult": "1 to 100 nM"
  },
  {
    "molecule": "COCCN1CC2(C1)C(=O)N(C)c1cnc3cc(F)c(-c4cnc(OCCNC(C)C)c(NS(C)(=O)=O)c4)cc3c12 [Example 507]",
    "experimentalResult": "1 to 100 nM"
  },
  {
    "molecule": "CC(C)NCCOc1ncc(-c2cc3c4c(cnc3cc2F)N(C)C(=O)C42CCC2)cc1NS(=O)(=O)CC#N [Example 374, hydrochloride]",
    "experimentalResult": "1 to 100 nM"
  },
  {
    "molecule": "CN(C)CCN(C)c1ncc(-c2cc3c4c(cnc3cc2F)N(C)C(=O)C42CCC2)cc1NS(C)(=O)=O [Example 363, hydrochloride]",
    "experimentalResult": "> 100 nM"
  },
  {
    "molecule": "Cc1ncc(S(=O)(=O)Nc2cc(-c3ccc4ncc5c(c4c3)C3(CCC3)C(=O)N5C)cnc2N2CC(N(C)C)C2)s1 [Example 338]",
    "experimentalResult": "1 to 100 nM"
  },
  {
    "molecule": "CN1C(=O)C2(CCC2)c2c1cnc1ccc(-c3cnc(N4CCC(C)(N5CCCCC5)C4)c(NS(C)(=O)=O)c3)cc21 (racemic) [Example 353, hydrochloride]",
    "experimentalResult": "> 100 nM"
  },
  {
    "molecule": "CC(C)NCCOc1ncc(-c2cc3c4c(cnc3cc2F)N(C)C(=O)C42CN(c3cccc(F)c3)C2)cc1NS(C)(=O)=O [Example 539]",
    "experimentalResult": "1 to 100 nM"
  },
  {
    "molecule": "CC(C)NCCOc1ncc(-c2cc3c(cc2F)ncc2c3[C@]3(C[C@@H](N(C)C)C3)C(=O)N2C)cc1NS(C)(=O)=O [Example 466]",
    "experimentalResult": "1 to 100 nM"
  },
  {
    "molecule": "CC(C)NCCOc1ncc(-c2cc3c(cc2F)ncc2c3[C@]3(C[C@H](c4cccc(=O)[nH]4)C3)C(=O)N2C)cc1NS(C)(=O)=O [Example 440]",
    "experimentalResult": "> 100 nM"
  },
  {
    "molecule": "CN1C(=O)C2(CCC2)c2c1cnc1ccc(-c3cnc(N4CCC(N5CCOCC5)CC4)c(NS(=O)(=O)C4CC4)c3)cc21 [Example 356, hydrochloride]",
    "experimentalResult": "< 0.5 nM"
  },
  {
    "molecule": "CN1C(=O)C2(CCC2)c2c1cnc1cc(F)c(-c3cnc(OCCNC4CC4)c(NS(C)(=O)=O)c3)cc21 [Example 376, hydrochloride]",
    "experimentalResult": "1 to 100 nM"
  }
]

---

targetOrTestSystem: DNA-PK (Homo sapiens (Human), UniProt P78527)
assayMethodText: DNA-PK Enzyme-Linked Immunosorbent Assay (phosphorylation of GST-p53 (1-101) peptide)
Type: biochemical
appliedConditions: ELISA, 20 μM ATP
pIC50: −log10 of the molar value. Where a name gives a salt, the structure may show the parent alone.
Parameter pIC50: see the listing below.

[
  {
    "molecule": "CN1C(=O)C2(CCC2)c2c1cnc1ccc(-c3cnc(N4CCC(N5CCCCC5)C4)c(NS(C)(=O)=O)c3)cc21 (racemic) [Example 352, hydrochloride]",
    "pIC50": "7.00 to 9.00"
  },
  {
    "molecule": "CCOC[C@H]1C[C@]2(C1)C(=O)N(C)c1cnc3cc(F)c(-c4cnc(OCCNC(C)C)c(NS(C)(=O)=O)c4)cc3c12 [Example 406]",
    "pIC50": "9.00 to 9.30"
  },
  {
    "molecule": "COc1cc([C@H]2C[C@]3(C2)C(=O)N(C)c2cnc4cc(F)c(-c5cnc(OCCNC(C)C)c(NS(C)(=O)=O)c5)cc4c23)ccn1 [Example 432]",
    "pIC50": "7.00 to 9.00"
  },
  {
    "molecule": "CC(C)NCCOc1ncc(-c2cc3c(cc2F)ncc2c3[C@]3(C[C@H](Oc4ccccc4)C3)C(=O)N2C)cc1NS(C)(=O)=O [Example 400]",
    "pIC50": "7.00 to 9.00"
  },
  {
    "molecule": "CC(C)NCCOc1ncc(-c2cc3c4c(cnc3cc2F)N(C)C(=O)C42CN(c3ccccc3Cl)C2)cc1NS(C)(=O)=O [Example 525]",
    "pIC50": "9.00 to 9.30"
  },
  {
    "molecule": "CN1C(=O)C2(CCC2)c2c1cnc1cc(F)c(-c3cnc(N4CCC(N5CCCCC5)CC4)c(NS(C)(=O)=O)c3)cc21 [Example 358, hydrochloride]",
    "pIC50": "7.00 to 9.00"
  },
  {
    "molecule": "COc1cc([C@H]2C[C@@]3(C2)C(=O)N(C)c2cnc4cc(F)c(-c5cnc(OCCNC(C)C)c(NS(C)(=O)=O)c5)cc4c23)ccn1 [Example 433]",
    "pIC50": "7.00 to 9.00"
  },
  {
    "molecule": "CC(C)NCCOc1ncc(-c2cc3c4c(cnc3cc2F)N(C)C(=O)C42CN(C3CCCC3)C2)cc1NS(C)(=O)=O [Example 498]",
    "pIC50": "9.00 to 9.30"
  },
  {
    "molecule": "CC(C)NCCOc1ncc(-c2cc3c4c(cnc3cc2F)N(C)C(=O)C42CN(c3ccc(C(F)(F)F)cc3)C2)cc1NS(C)(=O)=O [Example 536, hydrochloride]",
    "pIC50": "7.00 to 9.00"
  },
  {
    "molecule": "COc1ccc([C@H]2C[C@]3(C2)C(=O)N(C)c2cnc4cc(F)c(-c5cnc(OCCNC(C)C)c(NS(C)(=O)=O)c5)cc4c23)cc1 [Example 420, hydrochloride]",
    "pIC50": "7.00 to 9.00"
  },
  {
    "molecule": "CC(C)NCCOc1ncc(-c2cc3c4c(cnc3cc2F)N(C)C(=O)C42CN(c3ccc(OC(F)(F)F)cc3)C2)cc1NS(C)(=O)=O [Example 541]",
    "pIC50": "7.00 to 9.00"
  },
  {
    "molecule": "CN1C(=O)C2(CCC2)c2c1cnc1ccc(-c3cnc(N4CCC(N5CCOCC5)CC4)c(NS(=O)(=O)N(C)C)c3)cc21 [Example 355]",
    "pIC50": "7.00 to 9.00"
  },
  {
    "molecule": "CCc1ccc(N2CC3(C2)C(=O)N(C)c2cnc4cc(F)c(-c5cnc(OCCNC(C)C)c(NS(C)(=O)=O)c5)cc4c23)cc1 [Example 529]",
    "pIC50": "7.00 to 9.00"
  },
  {
    "molecule": "CC(C)NCCOc1ncc(-c2cc3c(cc2F)ncc2c3[C@]3(C[C@H](c4cccc(=O)[nH]4)C3)C(=O)N2C)cc1NS(C)(=O)=O [Example 440]",
    "pIC50": "7.00 to 9.00"
  },
  {
    "molecule": "CC(C)NCCOc1ncc(-c2cc3c4c(cnc3cc2F)N(C)C(=O)C42CN(c3ccc(-c4ccccc4)cc3)C2)cc1NS(C)(=O)=O [Example 543]",
    "pIC50": "7.00 to 9.00"
  },
  {
    "molecule": "CC(C)NCCOc1ncc(-c2cc3c(cc2F)ncc2c3[C@]3(C[C@H](c4ccc(Cl)cc4)C3)C(=O)N2C)cc1NS(C)(=O)=O [Example 416]",
    "pIC50": "7.00 to 9.00"
  },
  {
    "molecule": "CC(C)NCCOc1ncc(-c2cc3c4c(cnc3cc2F)N(C)C(=O)C42CC(C)(C)C2)cc1NS(C)(=O)=O [Example 446]",
    "pIC50": "> 9.30"
  },
  {
    "molecule": "CC(C)NCCOc1ncc(-c2cc3c4c(cnc3cc2F)N(C)C(=O)C42CCC2)cc1NS(=O)(=O)N1CC(F)C1 [Example 371]",
    "pIC50": "7.00 to 9.00"
  },
  {
    "molecule": "CC(C)NCCOc1ncc(-c2cc3c(cc2F)ncc2c3[C@]3(C[C@H](COC(C)C)C3)C(=O)N2C)cc1NS(C)(=O)=O [Example 410]",
    "pIC50": "> 9.30"
  },
  {
    "molecule": "CC(C)NCCOc1ncc(-c2cc3c(cc2F)ncc2c3[C@]3(C[C@@H](c4ccccc4)C3)C(=O)N2C)cc1NS(C)(=O)=O [Example 415, hydrochloride]",
    "pIC50": "7.00 to 9.00"
  },
  {
    "molecule": "CC(C)NCCOc1ncc(-c2cc3c4c(cnc3cc2F)N(C)C(=O)C42CN(c3ccc(Cl)cc3)C2)cc1NS(C)(=O)=O [Example 523, hydrochloride]",
    "pIC50": "> 9.30"
  },
  {
    "molecule": "CO[C@H]1C[C@@]2(C1)C(=O)N(C)c1cnc3ccc(-c4cnc(OCCNC(C)C)c(NS(C)(=O)=O)c4)cc3c12 [Example 384, hydrochloride]",
    "pIC50": "> 9.30"
  }
]
